- System: HS 578T breast
- assay.method.text: NCI tumour cell line growth inhibition, 48 h
assay.metric: TGI

>  <molecule>
NS(=O)(=O)OC[C@H]1O[C@@H](n2cnc3c(N[C@H]4CCc5ccccc54)ncnc32)[C@H](O)[C@@H]1O

>  <readout.value>
6.93 µM

$$$$
>  <molecule>
Cc1cc2nc(N)n[n+]([O-])c2cc1C

>  <readout.value>
> 100 µM

$$$$
>  <molecule>
Nc1c(Cl)ncnc1NCC1(CO)CCC1

>  <readout.value>
> 100 µM

$$$$
>  <molecule>
O=C1C=Cc2cc3ccccc3c3cccc1c23

>  <readout.value>
11.7 µM

$$$$

Now for a further molecule.
## Task Sample CC([C@H]1CCC2C3CCC4C(=O)C(NC=O)=CC[C@]4(C)C3CC[C@@]21C)N(C)C (stereo not given in full) — what was its TGI?
## Result 20.8 µM

###

- Test system: RXF 393 renal
- assay.method.text: NCI tumour cell line growth inhibition, 48 h
Entries and their log10(TGI) values follow.
Answers are given as log10 of TGI in µM.

Use these answered entries as a reference point.
>  <compound>
Cc1cc(C)c2nc(Nc3nc(C)c(C)c(=O)[nH]3)nc(C)c2c1

>  <target.desc>
RXF 393 renal

>  <log10(TGI)>
0.88

$$$$
>  <compound>
C(=C/c1ccc2nc(-c3ccc(/C=C/C=N/NC4=NCCCN4)cc3)cn2c1)/C=N/NC1=NCCCN1

>  <target.desc>
RXF 393 renal

>  <log10(TGI)>
1.69

$$$$

## Task Consider the compound shown here: CC(C)=CCNc1ncnc2c1ncn2C1OC(COP(=O)(O)O)C(O)C1O (stereo not given) What is its recorded log10(TGI)?
## Result 0.95

## Task # lookup: log10(TGI) of "NC(=O)c1ccc(N)nc1"
## Result -0.06

## Task What value of measured log10(TGI) is listed for "COc1ccc(/C=C/C=C2C(=O)NC(=S)NC2=O)cc1" ?
## Result 1.23

## Task Please report the recorded log10(TGI) for "O=C1CCCc2ccc3c(c21)CC1(Cc2cc4c(cc2C1)CCCC4)C3" .
## Result 1.51

###

- Test system: 786-0 renal
- assay.method.text: NCI tumour cell line growth inhibition, 48 h
assay.metric: TGI

>  <compound>
COC(=O)c1ccc2c(c1)[n+](=O)c(C(C)=O)c(C(F)(F)F)n2[O-]

>  <TGI>
3.37 µM

$$$$
>  <compound>
N#CC1=C(N)NC(=S)NC1c1ccc(-c2ccc(-c3nc4ccccc4s3)cc2)o1 (centres undefined)

>  <TGI>
> 50 µM

$$$$
>  <compound>
O=C(Nc1ccc(Cl)cc1Cl)c1c/c(=N\O)c2ccc(O)cc2o1

>  <TGI>
> 100 µM

$$$$

Note: attention shifts to another entry.
## Task Give the reported TGI for "CO/C=C(/C(=O)OC)c1ccccc1[C@H]1C[C@@H]1c1ccc(OC)cc1" (system: 786-0 renal).
## Result > 100 µM

###

- System: SF-268 CNS
- assay.method.text: NCI tumour cell line growth inhibition, 48 h; in the data active means GI50 below about 0.43 µM; inactive means the rest
Valid outcomes are listed here; reply with one: active, inactive

Solved entries:
>  <molecule>
O=C(NCCc1ccccc1)C(c1csc2ccccc12)N(C(=O)CCl)c1ccc(-c2cnco2)cc1 (stereo not given)

>  <category.label>
active

$$$$
>  <molecule>
CC(C)=CCNc1ncnc2c1ncn2C1OC(COP(=O)(O)O)C(O)C1O (stereo not given)

>  <category.label>
inactive

$$$$
>  <molecule>
CC([C@H]1CCC2C3CCC4C(=O)C(NC=O)=CC[C@]4(C)C3CC[C@@]21C)N(C)C (stereo not given in full)

>  <category.label>
inactive

$$$$
>  <molecule>
CN1CCN(c2nc(NCCNc3ccnc4cc(Cl)ccc34)c3ccccc3n2)CC1

>  <category.label>
inactive

$$$$

Read the next record carefully.
## Task Which outcome did this test record for the molecule "COc1ccc(CNCCN2C(=O)c3ccc4c5c(ccc(c35)C2=O)C(=O)N(CCNCc2ccc(OC)cc2)C4=O)cc1" ?
## Result active

###

- System: UACC-257 melanoma
- assay.method.text: NCI tumour cell line growth inhibition, 48 h; in the data active = GI50 below about 0.43 µM; inactive = the rest
Where a SMILES comes first, the peptide text is derived from it. [ ]: non-standard residue; d: D form. The star is where a group is joined. ξ: configuration not given here. 4Abz = Nc1ccc(C(=O)O)cc1; ξL = CC(C)CC(N)C(=O)O; NHOH = ON*
Use one of these outcomes when replying: active, inactive

## Task // outcome(item) with item = "O=C1c2cc(Br)ccc2-c2c1c1ccccc1c(=O)n2CCCCl"
## Result inactive

## Task Test call, this molecule: CC(C)CC(NC(=O)[C@@H]1CCCN1C(=O)CNC(=O)c1ccc(N)cc1)C(=O)N[C@H](C)C(=O)NO (some centres undefined) (H-[4Abz]GP[ξL][dA]-{NHOH})
## Result inactive

## Task Can you look up the reported call for "CC(=O)c1c[nH]c2ccc(-c3ccnc(Nc4ccc(NC(=O)c5cccc(F)c5)c(CN5CCOCC5)c4)n3)cc12" for me?
## Result active

## Task Each molecule tested received a call. Report the one for "COc1ccc(-n2cc(-c3ccc(Cl)cc3)[nH]c2=S)cc1Cl" .
## Result inactive

###

- Test system: UO-31 renal
- assay.method.text: NCI tumour cell line growth inhibition, 48 h
Where a SMILES comes first, the peptide text is derived from it. The star is where a group is joined. Boc = CC(C)(C)OC(=O)*; OBn = c1ccc(CO*)cc1; Bn = c1ccc(C*)cc1
Documented TGI across a set of molecules

>  <molecule>
CC(C)OCC(O)COc1cc(=O)oc2ccccc12 (stereo not given)

>  <TGI>
> 100 µM

$$$$
>  <molecule>
CN1CCN(c2nc(NCCNc3ccnc4cc(Cl)ccc34)c3ccccc3n2)CC1

>  <TGI>
3.53 µM

$$$$
>  <molecule>
CC(C)CC(NC(=O)C(CCC(=O)OCc1ccccc1)NC(=O)OC(C)(C)C)C(=O)NC(COCc1ccccc1)C(=O)NC(Cc1ccccc1)C(=O)O (stereo not given) (Boc-E(OBn)LS(Bn)F-OH; configuration not given here)

>  <TGI>
> 100 µM

$$$$
>  <molecule>
N#CCCN(CCN(CCN(C(=O)Nc1ccccc1)c1ccccc1)C(=O)Nc1ccccc1)C(=O)Nc1ccccc1

>  <TGI>
> 100 µM

$$$$
>  <molecule>
COc1cc(/C=C/C(=O)OC[C@]23O[C@H]2[C@@H](OC2OC(C)C(O)C(O)C2O)C2C=CO[C@@H](OC4OC(CO)C(O)C(O)C4O)C23)ccc1O (stereo not given in full)

>  <TGI>
> 100 µM

$$$$
>  <molecule>
COc1ccc(C2CC(c3cccc(Nc4ccnc5cc(Cl)ccc45)c3)=NN2c2ccccc2)cc1 (stereo not given)

>  <TGI>
21.6 µM

$$$$
>  <molecule>
NC(N)=Nc1nc2cc(N)ccc2o1

>  <TGI>
> 100 µM

$$$$
>  <molecule>
Cc1ccc(NC(=O)C(=O)C2C(=O)C3=C(CC2(C)C)NC2C=CC=CC2S3)c(C)c1 (stereo not given)

>  <TGI>
> 100 µM

$$$$
>  <molecule>
CCOc1cccc2cccnc12

>  <TGI>
> 100 µM

$$$$
>  <molecule>
Nc1nc(Cl)cc2c1ncn2C1OC(CO)C(O)C1O (stereo not given)

>  <TGI>
> 100 µM

$$$$

## Task Provide the documented TGI with UO-31 renal as the system for CC1(C)OC2C(CO)OC(/N=C(\NC#N)Oc3ccccc3)C2O1 (stereo not given)
## Result > 100 µM

## Task Field: TGI (UO-31 renal). Entry: C[N+](C)(C)CC(=O)NC(=O)N/N=C\C(CC#N)CN(Cc1ccccc1)Cc1ccccc1 (stereo not given)
## Result > 100 µM

## Task Kindly state the measured TGI obtained for "COc1cc(CNc2nc3cc(C(F)(F)F)ccc3nc2C(=O)O)cc(OC)c1OC" with UO-31 renal.
## Result 39.4 µM

## Task Form field: TGI recorded for "CC(=O)O/N=C1\C=Cc2c(no[n+]2[O-])C1=O" with UO-31 renal (enter value)
## Result 28.3 µM

## Task Lab note: need TGI with UO-31 renal for entry "O=C1c2cc(Br)ccc2-c2c1c1ccccc1c(=O)n2CCCCl" , please look it up.
## Result > 100 µM

###

- Test system: SW-620 colon
- assay.method.text: NCI tumour cell line growth inhibition, 48 h; in the data active means GI50 below about 0.43 µM; inactive means the rest
Your response should consist of one outcome taken from class 1 (active), class 0 (inactive)

>  <molecule>
COc1cc(Oc2cnc3cc(N)cc(N)c3n2)cc(OC)c1OC

>  <category.label>
class 0

$$$$
>  <molecule>
COc1cc2c(cc1OC)[C@@H]1[C@H](C2=O)c2ccc([N+](=O)[O-])cc2C(=O)N1CCCBr

>  <category.label>
class 1

$$$$
>  <molecule>
COc1ccc(OC)c(-c2cc(-c3ccc(Cl)cc3)nn2-c2ccc(S(N)(=O)=O)cc2)c1

>  <category.label>
class 0

$$$$
>  <molecule>
Oc1ccc(Br)cc1CN1CCN(Cc2ccc(Cl)cc2)CC1

>  <category.label>
class 0

$$$$
>  <molecule>
Nc1ncnc2c1ncn2C1OC(CO)C(O)C1O (centres undefined)

>  <category.label>
class 0

$$$$
>  <molecule>
CC(C)=CCNc1ncnc2c1ncn2C1OC(COP(=O)(O)O)C(O)C1O (centres undefined)

>  <category.label>
class 0

$$$$

## Task State the result this test recorded for "O=C1C=Cc2cc3ccccc3c3cccc1c23" .
## Result class 0

## Task Please state the recorded outcome for this molecule: O=C(NCCc1ccccc1)C(c1csc2ccccc12)N(C(=O)CCl)c1ccc(-c2cnco2)cc1 (centres undefined)
## Result class 1

## Task For "CC(=N\O)/C(C)=N/O.CC(=N\O)/C(C)=N/O.[Pd]" , which call appears in the assay record?
## Result class 0
